ASSAY PROCEDURE: Selectivity ratio, ratio of IC50 for cytotoxicity against human MCF-10A cells to IC50 for antiproliferative activity against human MHCC97H cells
Type: toxicity, cell-based
CONDITION CONTEXT: MCF-10A cells versus MHCC97H cells, read-out: Ratio IC50
MEASURED ATTRIBUTE: selectivity ratio
One number for each entry.

input: Entry "COc1ccc2c(/C=C(\C)C(=O)c3cc(OC)c(OC)c([Se]C)c3)c[nH]c2c1" has what selectivity ratio?
output: 121

###

ASSAY PROCEDURE: Selectivity ratio, ratio of IC50 for cytotoxicity against human HUVEC cells to IC50 for antiproliferative activity against human MHCC97H cells
Assay type: toxicity, cell-based
CONDITION CONTEXT: HUVEC cells versus MHCC97H cells, read-out: Ratio IC50
MEASURED ATTRIBUTE: selectivity ratio
Give bare numbers.

input: # selectivity ratio lookup, item "COc1ccc2c(/C=C(\C)C(=O)c3cc(OC)c(OC)c([Se]C)c3)c[nH]c2c1"
output: 9.33

###

Test system: HCT-8
ASSAY PROCEDURE: Antiproliferative activity against human HCT-8 cells assessed as reduction in cell viability incubated for 48 hrs by MTT assay
Format: functional, cell-based
CONDITION CONTEXT: HCT-8, 48 h
Label T when IC50 < 200 nM; otherwise F.

Some solved entries appear below for comparison.
{"columns": ["STRUCTURE NOTATION", "CLASS LABEL"],
 "data": [
  ["COc1cc(C(=O)/C=C/c2c[nH]c3ccccc23)cc(N)c1OC", "F"],
  ["COc1cc(C(=O)/C(C)=C/c2c[nH]c3ccccc23)cc([Se]C)c1OC", "T"],
  ["COc1ccc2c(/C=C/C(=O)c3cc(OC)c(OC)c(SC)c3)cn(C)c2c1", "T"],
  ["COc1cc(C(=O)/C=C/c2c[nH]c3ccccc23)cc(SC)c1OC", "T"],
  ["COc1cc(C(=O)/C=C/c2c[nH]c3ccccc23)cc([N+](=O)[O-])c1OC", "F"],
  ["COc1cc(C(=O)/C=C/c2cn(C)c3ccccc23)cc(SC)c1OC", "F"]
]}

input: # strict comparison: is reported IC50 < 200 nM? input = "COc1ccc2c(/C=C/C(=O)c3cc(N)c(OC)c(OC)c3)c[nH]c2c1"
output: F

input: Criterion: IC50 strictly below 200 nM. Is it met by "COc1cc(C(=O)/C=C/c2cn(C)c3ccccc23)cc(N)c1OC" ?
output: F

input: For this compound, is IC50 lower than 200 nM? "COc1ccc(/C=C\c2cc(OC)c(OC)c(OC)c2)cc1O"
output: T

input: A record lists "COc1ccc2c(/C=C/C(=O)c3cc(N)c(OC)c(OC)c3)cn(C)c2c1" . Is its IC50 below 200 nM?
output: F

###

ASSAY PROCEDURE: Selectivity ratio, ratio of IC50 for cytotoxicity against human L02 cells to IC50 for antiproliferative activity against human MHCC97H cells
Format: toxicity, cell-based
CONDITION CONTEXT: L02 cells versus MHCC97H cells, read-out: Ratio IC50
MEASURED ATTRIBUTE: selectivity ratio
Numbers only.

input: State the recorded selectivity ratio for this entry: "COc1ccc2c(/C=C(\C)C(=O)c3cc(OC)c(OC)c([Se]C)c3)c[nH]c2c1"
output: 66.3
